Ref: patent US8871753B2

Target: human JAK1 (a.a. 837-1142) (Homo sapiens)
Construct: human JAK1 (a.a. 837-1142); His tag (N); made in house; host or cells: insect cells (baculovirus)
Sequence (P23458 849-1154): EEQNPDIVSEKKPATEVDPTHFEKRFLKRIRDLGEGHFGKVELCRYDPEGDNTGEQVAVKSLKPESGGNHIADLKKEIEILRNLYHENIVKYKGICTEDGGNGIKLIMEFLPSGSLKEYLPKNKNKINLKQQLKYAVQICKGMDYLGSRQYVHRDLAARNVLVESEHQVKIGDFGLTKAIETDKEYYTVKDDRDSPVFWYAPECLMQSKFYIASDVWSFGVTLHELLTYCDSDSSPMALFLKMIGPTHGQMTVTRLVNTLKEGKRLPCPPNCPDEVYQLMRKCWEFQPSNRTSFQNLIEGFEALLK
Experiment: In vitro JAK kinase assay (HTRF, phosphorylation of a biotinylated peptide), JAK1
Type: biochemical
Details: read-out: JAK1 IC50
Where a name gives a salt, the structure may show the parent alone.
RECORDED_METRIC: IC50 (nM)

COMPOUND: O=C(Cc1ccncc1)Nc1ccc2cc1CCc1cccc(c1)Nc1ncc(Cl)c(n1)N2 [Example C40, bis(trifluoroacetate)]
UNIT_NAME: nM
CMP: =
NUMBER: 62
--
COMPOUND: Clc1cnc2nc1Nc1cccc(c1)CCc1ccnc(c1)N2
UNIT_NAME: nM
CMP: =
NUMBER: 700
--
COMPOUND: N#Cc1ccccc1S(=O)(=O)N1CCC(COc2ccc3cc2CCc2cncc(c2)Nc2ncc(Cl)c(n2)N3)C1 (stereo not drawn) [Example C57, bis(trifluoroacetate)]
UNIT_NAME: nM
CMP: >
NUMBER: 400
--
COMPOUND: O=C(c1ccccn1)N1Cc2cccc(c2)Nc2ncc(Cl)c(n2)Nc2cccc1c2
UNIT_NAME: nM
CMP: =
NUMBER: 162
--
COMPOUND: O=C1NCc2cccc(c2)Nc2ncc(Cl)c(n2)Nc2cccc1c2
UNIT_NAME: nM
CMP: =
NUMBER: 361
--
COMPOUND: Cc1ncsc1CCC(=O)Nc1ccc2cc1CCc1cccc(c1)Nc1ncc(Cl)c(n1)N2 [Example C48, trifluoroacetate]
UNIT_NAME: nM
CMP: =
NUMBER: 52
--
COMPOUND: O=S1(=O)NCc2cccc(c2)Nc2nc(ncc2Cl)Nc2cccc1c2
UNIT_NAME: nM
CMP: =
NUMBER: 81
--
COMPOUND: O=S1(=O)Nc2cccc(c2)Nc2nc(ncc2Cl)Nc2cccc1c2 [Example C6, trifluoroacetate]
UNIT_NAME: nM
CMP: =
NUMBER: 220
--
COMPOUND: O=C(Nc1ccccc1)N1CCC(COc2ccc3cc2CCc2cncc(c2)Nc2ncc(Cl)c(n2)N3)C1 (stereo not drawn) [Example C59, bis(trifluoroacetate)]
UNIT_NAME: nM
CMP: =
NUMBER: 102

* * *

The reader will find reported pIC50 values listed item by item below.
Biological target: TYK2 (Homo sapiens, UniProt P29597)
Sequence (P29597 whole entry): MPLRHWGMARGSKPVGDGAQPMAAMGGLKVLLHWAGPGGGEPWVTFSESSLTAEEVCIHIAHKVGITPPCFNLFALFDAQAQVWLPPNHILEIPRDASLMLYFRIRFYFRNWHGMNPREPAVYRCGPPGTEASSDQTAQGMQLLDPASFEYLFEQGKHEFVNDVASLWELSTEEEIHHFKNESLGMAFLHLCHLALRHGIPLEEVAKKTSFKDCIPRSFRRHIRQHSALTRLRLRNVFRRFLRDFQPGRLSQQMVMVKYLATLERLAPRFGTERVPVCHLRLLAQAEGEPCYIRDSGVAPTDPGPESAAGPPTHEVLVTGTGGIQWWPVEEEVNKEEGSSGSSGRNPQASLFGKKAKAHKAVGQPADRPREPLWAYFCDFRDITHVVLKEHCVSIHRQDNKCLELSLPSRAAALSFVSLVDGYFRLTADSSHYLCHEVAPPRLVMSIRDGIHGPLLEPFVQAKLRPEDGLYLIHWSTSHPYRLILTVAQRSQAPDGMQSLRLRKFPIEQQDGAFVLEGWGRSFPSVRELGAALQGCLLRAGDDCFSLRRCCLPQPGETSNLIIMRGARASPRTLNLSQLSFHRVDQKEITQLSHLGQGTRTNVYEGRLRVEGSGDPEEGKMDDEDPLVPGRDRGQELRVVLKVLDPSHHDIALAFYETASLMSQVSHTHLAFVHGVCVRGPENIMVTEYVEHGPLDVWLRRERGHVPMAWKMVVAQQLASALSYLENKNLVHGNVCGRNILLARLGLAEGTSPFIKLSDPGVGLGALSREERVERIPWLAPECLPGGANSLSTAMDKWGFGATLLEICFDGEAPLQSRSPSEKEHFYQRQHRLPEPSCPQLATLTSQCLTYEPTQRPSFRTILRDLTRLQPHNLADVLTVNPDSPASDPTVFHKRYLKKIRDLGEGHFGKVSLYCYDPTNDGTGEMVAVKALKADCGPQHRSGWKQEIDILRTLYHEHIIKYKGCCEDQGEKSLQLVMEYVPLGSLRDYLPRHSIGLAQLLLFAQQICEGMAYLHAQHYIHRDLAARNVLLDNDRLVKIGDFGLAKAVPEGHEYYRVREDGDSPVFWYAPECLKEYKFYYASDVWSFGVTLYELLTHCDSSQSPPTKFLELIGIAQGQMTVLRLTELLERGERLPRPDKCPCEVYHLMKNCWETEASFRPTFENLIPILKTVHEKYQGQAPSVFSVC
Test: TYK2 kinase inhibition (Table A1)
Assay type: biochemical
Conditions: Table B1
pIC50: −log10 of the molar value. Where a name gives a salt, the structure may show the parent alone.

MOLECULE: CC(C)c1ccccc1NC(=O)Nc1ccc2cc1CCc1cccc(c1)Nc1ncc(Cl)c(n1)N2 [Example B104, trifluoroacetate]
CMP: =
pIC50: 7.59
--
MOLECULE: O=C(Nc1cc2cc(c1)Nc1nc(ncc1Cl)Nc1cccc(c1)CC2)NC1CCCC1 [Example B215, trifluoroacetate]
CMP: =
pIC50: 6.12
--
MOLECULE: Cc1ncoc1C(=O)N1CCC(CN(C)Cc2ccc3cc2CCc2cncc(c2)Nc2ncc(Cl)c(n2)N3)CC1 [Example B347, tris(trifluoroacetate)]
CMP: <
pIC50: 6.40
--
MOLECULE: O=C(NCCNS(=O)(=O)c1ccccc1)Nc1ccc2cc1CCc1cccc(c1)Nc1ncc(Cl)c(n1)N2 [Example B329, trifluoroacetate]
CMP: =
pIC50: 8.24
--
MOLECULE: O=C(Cc1ccccc1)Nc1ccc2cc1CCc1cccc(c1)Nc1ncc(Cl)c(n1)N2 [Example B32, trifluoroacetate]
CMP: =
pIC50: 8.57
--
MOLECULE: CS(=O)(=O)N1CC[C@@H](NC(=O)Nc2ccc3cc2CCc2cccc(c2)Nc2ncc(Cl)c(n2)N3)C1 [Example B178, trifluoroacetate]
CMP: =
pIC50: 8.59
--
MOLECULE: CCNC(=O)Nc1ccc2cc1CCc1cccc(c1)Nc1ncc(Cl)c(n1)N2 [Example B115, trifluoroacetate]
CMP: =
pIC50: 8.06
--
MOLECULE: OCc1ccc2cc1CCc1cccc(c1)Nc1ncc(Cl)c(n1)N2 [Example B23, trifluoroacetate]
CMP: =
pIC50: 8.74
--
MOLECULE: O=C(Nc1ccc2cc1CCc1cccc(c1)Nc1ncc(Cl)c(n1)N2)N[C@H]1CCN(c2ncccn2)C1 [Example B262, bis(trifluoroacetate)]
CMP: =
pIC50: 8.06
--
MOLECULE: O=C(NCCNS(=O)(=O)C1CC1)Nc1ccc2cc1CCc1cccc(c1)Nc1ncc(Cl)c(n1)N2 [Example B327, trifluoroacetate]
CMP: =
pIC50: 8.30
--
MOLECULE: O=C(Nc1ccc2cc1CCc1cccc(c1)Nc1ncc(Cl)c(n1)N2)N[C@H]1CCN(C(=O)c2ccncc2)C1 [Example B234, bis(trifluoroacetate)]
CMP: =
pIC50: 7.96
--
MOLECULE: O=C(Nc1ccc2cc1CCc1cccc(c1)Nc1ncc(Cl)c(n1)N2)NC1CCNCC1 [Example B181, dihydrochloride]
CMP: =
pIC50: 6.65
--
MOLECULE: O=C(Nc1ccc2cc1CCc1cccc(c1)Nc1ncc(Cl)c(n1)N2)N[C@H]1CCNC1 [Example B167, bis(trifluoroacetate)]
CMP: =
pIC50: 7.52
